test system: rice; experiment: Test C flooded paddy test; type: in vivo, Oryza sativa; conditions: Flood, 250 g ai/ha; scale 0 to 100 (0 no effect, 100 complete control)
Binary call on Plant response rating, Rice: true (1) from 70 upward, false (0) beneath that.

Worked examples follow.
>>> discrete_label("Cc1cc[n+]([O-])c([S+]([O-])Cc2c(C(F)(F)F)nn(C)c2OC(F)F)c1 (stereo not shown)")
"true (1)"
>>> discrete_label("Cn1nc(C(F)(F)F)c(C[S+]([O-])c2cccc[n+]2[O-])c1Cl (stereo not shown)")
"false (0)"
>>> discrete_label("Cc1cc[n+]([O-])c([S+]([O-])C(C)c2c(C(F)(F)F)nn(C)c2Cl)c1 (mixture of isomers)")
"false (0)"
>>> discrete_label("Cn1nc(C(F)(F)F)c(CS(=O)(=O)c2cc(C(C)(C)C)cc[n+]2[O-])c1OC(F)F")
"true (1)"

input: Please indicate if the recorded Plant response rating, Rice for CC(c1c(C(F)(F)F)nn(C)c1Cl)S(=O)(=O)c1cccc[n+]1[O-] (stereo not shown) meets or exceeds 70.
output: true (1)

====

We begin with a simple list: items and their reported Plant response rating, Rice.
system: rice; test: Test C flooded paddy test; format: in vivo, Oryza sativa; conditions: Flood, 62 g ai/ha; scale 0 to 100 (0 no effect, 100 complete control)
// no unit, no text: just the number

In the examples that follow, each entry is paired with its recorded Plant response rating, Rice.
>>> quantitative_readout("Cn1nc(C(F)(F)F)c(CS(=O)(=O)c2cc(C(C)(C)C)cc[n+]2[O-])c1OCC(F)(F)F")
0
>>> quantitative_readout("Cc1cc(S(=O)(=O)Cc2c(C(F)(F)F)nn(C)c2OCC(F)(F)F)[n+]([O-])cc1Cl")
30
>>> quantitative_readout("Cn1nc(C(F)(F)F)c(C[S+]([O-])c2cccc[n+]2[O-])c1OCC(F)(F)C(F)(F)F (stereo not drawn)")
10

input: Given the compound CC(Oc1c(CS(=O)(=O)c2ccc(Cl)c[n+]2[O-])c(C(F)(F)F)nn1C)C(F)(F)F (stereo not drawn) , what is its reported Plant response rating, Rice?
output: 0

====

system: crabgrass; assay: Test A pre-/postemergence greenhouse test; assay type: in vivo, Digitaria sanguinalis; details: Postemergence, 500 g ai/ha; 0 to 100 scale, 0 is no effect, 100 is complete control
Readings of Crabgrass, Large plant response rating for the listed compounds
// print number alone

Use the examples below as a reference point.
>>> quantitative_readout("Cn1nc(C(F)(F)F)c(C(Cl)S(=O)(=O)c2cccc[n+]2[O-])c1OC(F)F (stereo not shown) [Compound 51]")
90
>>> quantitative_readout("Cc1cc[n+]([O-])c(S(=O)(=O)C(C)c2c(C(F)(F)F)nn(C)c2OC(F)F)c1 (stereo not shown) [Compound 11]")
80
>>> quantitative_readout("CCn1nc(C(F)(F)F)c(CS(=O)(=O)c2cc(C)cc[n+]2[O-])c1OCC(F)(F)F [Compound 64]")
90
>>> quantitative_readout("Cc1cc[n+]([O-])c(S(=O)(=O)Cc2c(C(F)(F)F)nn(C)c2OCC(F)(F)F)c1 [Compound 31]")
80
>>> quantitative_readout("Cn1nc(C(F)(F)C(F)(F)F)c(CS(=O)(=O)c2cccc[n+]2[O-])c1OCC(F)(F)F [Compound 84]")
80
>>> quantitative_readout("Cn1nc(C(F)(F)F)c(C[S+]([O-])c2ccc(F)c[n+]2[O-])c1OCC(F)(F)F (stereo not shown) [Compound 67]")
90

Let us examine a further case.
input: Entry Cc1cc[n+]([O-])c([S+]([O-])C(C)c2c(C(F)(F)F)nn(C)c2Cl)c1 (mixture of isomers) [Compound 15] has what Crabgrass, Large plant response rating?
output: 0
